# experimentalProtocol: In vivo retention of GlcNAc in knee joints after intra-articular administration
# Set-up: species or system Wistar rats
# testParameters: Wistar, rat, knee joint homogenate, 0.1345 mg per knee joint; single intra-articular administration, saline solution
metricName: half-life (min)

>>> recordedvalue("CC(=O)N[C@H]1C(O)O[C@H](CO)[C@@H](O)[C@@H]1O (stereo partly shown) [GlcNAc, N-acetylglucosamine]")
4.1

---

# Test system: TNFα induced nitric oxide (NO) production in normal human articular chondrocytes
# experimentalProtocol: TNFα induced NO production in chondrocytes
# Format: cell-based
metricName: TNFα induced nitric oxide (NO) production

>>> recordedvalue("CC(=O)N[C@H]1C(O)O[C@H](CO)[C@@H](O)[C@@H]1O (stereo partly shown) [GlcNAc, N-acetylglucosamine]")
"inhibit"
>>> recordedvalue("O=C[C@H](O)[C@@H](O)[C@H](O)[C@H](O)C(=O)O [glucuronic acid]")
"did not inhibit"
>>> recordedvalue("N[C@H]1C(O)O[C@H](CO)[C@@H](O)[C@@H]1O (stereo partly shown) [GA, glucosamine]")
"inhibit"
>>> recordedvalue("CC(=O)N[C@@H]1C(O)O[C@H](CO)[C@@H](O)[C@@H]1O (stereo partly shown) [N-acetylmannosamine]")
"did not inhibit"

// data source = patent EP1379135B1
